# System: Hepatitis C virus
# Experiment Description: Antiviral activity against HCV 1b infected in human HuH7 cells assessed as inhibition of viral sub-genomic replication by EG(delta-4AB)SEAP reporter protein assay
# Type: functional, organism-based, Hepacivirus hominis
# Recorded Conditions: genotype 1b, Huh-7
Outcome Measure: EC50 (nM)

Example cases with answers are listed next.
# Smiles Notation, Study Target, EC50 / nM
rows = [
    ("O=C(NC(=S)N1CCc2c(OCCCCCOc3ccc(Cl)cc3)cccc21)c1ccccc1", "Hepatitis C virus", 790),
    ("Cc1ccc(C(=O)NC(=S)N2CCc3c(OCCCCCOc4ccc(Cl)cc4)cccc32)cc1", "Hepatitis C virus", 1940),
    ("CC(C)(C)c1ccc(C(=O)NC(=S)N2CCc3c(OCCCCCOc4ccc(Cl)cc4)cccc32)cc1", "Hepatitis C virus", 1950),
    ("NC(=S)N1CCc2c(OCCCCCOc3ccc(Cl)cc3)cccc21", "Hepatitis C virus", 4710),
    ("O=C(NC(=S)N1CCc2c(OCCCCCOc3ccc(Cl)cc3)cccc21)c1ccc([N+](=O)[O-])cc1", "Hepatitis C virus", 720),
]

a: O=C(NC(=S)N1CCc2c(OCCCCCOc3ccc(Cl)cc3)cccc21)c1cccc([N+](=O)[O-])c1
b: O=C(NC(=S)N1CCc2c(OCCCCCOc3ccc(Cl)cc3)cccc21)c1ccno1
*Q* Which value of EC50 is numerically greater: that of a or that of b ? Pick one; state its label.
*A* b
